// values below are IC50; system is Ephrin type-B receptor 2 (Homo sapiens)
Readout Label: IC50 (µM)

smi=CN(C)c1ccc(/C=C2/C(=O)Nc3ccccc32)cc1 uom=µM readout_value=27.5

1. COc1cc2ncnc(Nc3ccc(Oc4ccccc4)cc3)c2cc1OC
2. COc1cc2ncnc(Nc3cccc(O)c3)c2cc1OC
3. COc1cc2ncnc(Nc3cccc(Br)c3)c2cc1OC
Order by IC50, ascending. The response must list the labels following the requested ordering.
2, 3, 1
(2: 1.2 µM, 3: 10.2 µM, 1: 86 µM)

---

- Measured Target: Ephrin type-B receptor 2 (Homo sapiens)
- Sequence (P29323 whole entry): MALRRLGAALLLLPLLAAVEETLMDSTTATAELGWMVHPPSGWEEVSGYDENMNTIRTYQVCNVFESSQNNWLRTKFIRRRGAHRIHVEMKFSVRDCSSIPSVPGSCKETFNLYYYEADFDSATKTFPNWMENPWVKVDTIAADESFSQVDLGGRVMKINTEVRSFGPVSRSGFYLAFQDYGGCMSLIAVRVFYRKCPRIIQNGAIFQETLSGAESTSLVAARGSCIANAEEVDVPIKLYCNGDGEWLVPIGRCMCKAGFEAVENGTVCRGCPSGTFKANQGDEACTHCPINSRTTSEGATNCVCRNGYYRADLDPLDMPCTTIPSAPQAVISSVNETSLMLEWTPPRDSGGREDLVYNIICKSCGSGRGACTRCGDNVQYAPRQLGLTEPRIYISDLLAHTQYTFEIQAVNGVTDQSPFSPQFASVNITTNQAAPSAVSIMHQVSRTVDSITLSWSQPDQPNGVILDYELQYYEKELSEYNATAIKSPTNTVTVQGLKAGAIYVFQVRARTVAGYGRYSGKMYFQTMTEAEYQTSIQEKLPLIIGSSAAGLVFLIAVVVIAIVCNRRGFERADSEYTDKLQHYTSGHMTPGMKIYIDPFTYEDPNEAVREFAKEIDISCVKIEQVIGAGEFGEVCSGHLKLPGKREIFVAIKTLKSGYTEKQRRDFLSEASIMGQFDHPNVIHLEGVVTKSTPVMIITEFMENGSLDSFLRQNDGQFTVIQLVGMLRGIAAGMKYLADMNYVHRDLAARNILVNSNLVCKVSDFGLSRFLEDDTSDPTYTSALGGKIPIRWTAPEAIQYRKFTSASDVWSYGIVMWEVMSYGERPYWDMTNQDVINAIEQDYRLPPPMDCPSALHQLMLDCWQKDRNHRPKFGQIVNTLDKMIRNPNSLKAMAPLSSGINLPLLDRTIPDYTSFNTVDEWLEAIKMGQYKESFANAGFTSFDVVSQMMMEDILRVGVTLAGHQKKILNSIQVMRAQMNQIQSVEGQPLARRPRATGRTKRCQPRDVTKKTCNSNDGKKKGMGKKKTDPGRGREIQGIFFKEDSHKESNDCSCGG
pKd: −log10 of the molar value.
Readout Label: pKd

A. COc1cc2ncnc(Nc3ccc(Oc4ccccc4)cc3)c2cc1OC
B. COc1cc2ncnc(Nc3cccc(O)c3)c2cc1OC
C. CN(C)c1ccc(/C=C2/C(=O)Nc3ccccc32)cc1
Put the above molecules in order of rising pKd, beginning with the smallest. The response must list the labels following the requested ordering.
A, C, B
